Target: T1, HPV16 E1 (Human papillomavirus type 16, UniProt P03114 1-649)
T1 sequence: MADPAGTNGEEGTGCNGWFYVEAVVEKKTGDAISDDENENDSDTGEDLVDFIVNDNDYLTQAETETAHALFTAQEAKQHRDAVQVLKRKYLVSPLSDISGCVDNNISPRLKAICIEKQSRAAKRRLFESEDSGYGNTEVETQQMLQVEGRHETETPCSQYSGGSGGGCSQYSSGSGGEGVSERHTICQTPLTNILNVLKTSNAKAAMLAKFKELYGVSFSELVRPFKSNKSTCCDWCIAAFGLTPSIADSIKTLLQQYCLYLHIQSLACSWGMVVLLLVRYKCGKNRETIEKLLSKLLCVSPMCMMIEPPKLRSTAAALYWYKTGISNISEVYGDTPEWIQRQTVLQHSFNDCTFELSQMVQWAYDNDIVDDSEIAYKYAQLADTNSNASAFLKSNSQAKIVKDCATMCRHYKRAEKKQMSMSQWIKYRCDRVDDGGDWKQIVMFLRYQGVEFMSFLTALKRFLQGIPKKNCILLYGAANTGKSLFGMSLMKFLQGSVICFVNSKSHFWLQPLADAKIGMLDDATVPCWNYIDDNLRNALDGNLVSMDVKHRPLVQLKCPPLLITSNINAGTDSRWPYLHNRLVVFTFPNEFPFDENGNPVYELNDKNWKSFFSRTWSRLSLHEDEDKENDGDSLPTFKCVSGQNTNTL
Assay: fluorescence polarization; 5 mM Mg2+; FP: 20 mM Tris-HCl pH 7.0, 10 mM NaCl, 0.1 mg/ml BSA, 5 mM MgCl2, 1 mM DTT, room temperature, 60 min; 50 nM probe, 0-200 nM protein
Conditions: protein: recombinant; tags: His (pET28a, Ni-NTA); Myc (co-IP); chain copies: 6; label: 5' Cy3; single strand
pKd: −log10 of the molar value.
ENDPOINT LABEL: pKd

>>> df
                                     binder  readout_value
0  GCGTCTTTACGGGTGCTTAAAAACAAAAACAAAAACAAAA (ssDNA) [Cy3-labeled 40-nt ssDNA (FP probe)]           6.76
